Each recorded value in this set is attributed to patent US7368431B2.

System: human breast carcinoma cell line MCF-7^wt
PROTOCOL_DETAILS: Cytotoxicity, MTT cell survival
Format: cell-based
MEASUREMENT_PARAMETERS: 72 hours
From the text: Efficacy of the conjugate was studied on the following cell lines: human breast carcinoma cell line MCF-7^wt and resistant human breast carcinoma cell line MCF-7^AdrR; human ovary carcinoma cell line SKOV3 and resistant human ovary carcinoma cell line SKVLB; and murine melanoma cell line B16. Study protocol was common for all test runs. […]
Peptide text beside a SMILES is read from it. * marks the point of attachment. X1 = COc1cccc2c1C(=O)c1c(O)c3c(c(O)c1C2=O)C[C@@](O)(C(=O)CO)C[C@@H]3O[C@H]1C[C@H](N=CCCCC=N[C@@H](CCSC)C(=O)*)[C@H](O)[C@H](C)O1
MEASUREMENT_LABEL: pIC50
One number for each entry, as −log10 of the molar value.

Quick one: give measured pIC50 for CC[C@H](C)[C@H](NC(=O)[C@H](Cc1ccc(O)cc1)NC(=O)[C@H](CCSC)N=CCCCC=N[C@H]1C[C@H](O[C@H]2C[C@](O)(C(=O)CO)Cc3c(O)c4c(c(O)c32)C(=O)c2c(OC)cccc2C4=O)O[C@@H](C)[C@H]1O)C(=O)N[C@@H](CCC(=O)O)C(=O)N[C@@H](C)C(=O)N[C@@H](CC(C)C)C(=O)N[C@@H](CC(=O)O)C(=O)N[C@@H](CO)C(=O)N[C@@H](Cc1ccc(O)cc1)C(=O)N[C@@H](C)C(=O)N[C@@H](CS)C(=O)O [Polypeptide-DR conjugate] (X1-YIEALDSYAC-OH)
8.89
